pKi: −log10 of the molar value.
Collected from the literature: pKi of various molecules toward Serine protease 1 (Bos taurus, UniProt P00760).
Think of 6 as a floor: if pKi stands on it or above, it is True; beneath it, False.

Challenge: Is it the case that "N=C(N)c1ccc(/C=C2\CCCC/C(=C\c3ccc(C(=N)N)cc3)C2=O)cc1" has pKi reaching or exceeding 6?
Response given: True

Challenge: Is it the case that "COc1ccc2ccc(S(=O)(=O)N(Cc3ccccn3)[C@H]3CCN(Cc4cccc(C(=N)N)c4)C3=O)cc2c1" has pKi reaching or exceeding 6?
Response given: False

Challenge: Is it the case that "N=C(N)c1cccc(C(=O)N[C@@H](C(=O)N2CCN(c3ccc(Cl)cc3)CC2)c2ccccc2)c1" has pKi reaching or exceeding 6?
Response given: False

Challenge: Is it the case that "N=C(N)N1CCCCC1" has pKi reaching or exceeding 6?
Response given: True

Challenge: Is it the case that COCC1(C(=O)Nc2ccc(-c3ccccc3S(N)(=O)=O)cc2)CC(c2cccc(C(=N)N)c2)=NO1 (configuration not stated) has pKi reaching or exceeding 6?
Response given: True

Challenge: Is it the case that "CC(=N)N1CCC(Oc2ccc(NC/C=C/c3cccc(C(=N)N)c3)cc2)CC1" has pKi reaching or exceeding 6?
Response given: True

Challenge: Is it the case that "CNC(=O)[C@H]1CCCCN1C(=O)[C@H](Cc1cccc(C(=N)N)c1)NS(=O)(=O)c1ccc2ccccc2c1" has pKi reaching or exceeding 6?
Response given: False

Challenge: Is it the case that "CCOC(=O)CCC(=O)N(C/C=C/c1cc(C(=N)N)ccc1O)c1ccc(OC2CCN(C(C)=N)CC2)c(C(F)(F)F)c1" has pKi reaching or exceeding 6?
Response given: True

Challenge: Is it the case that CCN(CC)C(=O)N1CCN(C(=O)C(Cc2cccc(C(=N)N)c2)NS(=O)(=O)c2ccc3ccccc3c2)CC1 (configuration not stated) has pKi reaching or exceeding 6?
Response given: True

Challenge: Is it the case that "O=S(=O)(Nc1cccc(OCCNc2ccncc2)c1)c1ccc2ccccc2c1" has pKi reaching or exceeding 6?
Response given: False

Challenge: Is it the case that C/N=C(/N)NCCCC(NS(=O)(=O)c1cccc2c(N(C)C)cccc12)C(=O)N1CCCCC1 (configuration not stated) has pKi reaching or exceeding 6?
Response given: False

Challenge: Is it the case that "CC(=N)N1CCC(Oc2ccc3c(c2)nc(C(C)C)n3Cc2ccc3ccc(C(=N)N)cc3c2)CC1" has pKi reaching or exceeding 6?
Response given: True
